Reported Morningglory plant response rating is given for each of the following molecules.
System: morningglory
Experiment: Test B pre/postemergence morningglory
Format: in vivo, Ipomoea hederacea
Conditions: Rate 62 g/ha, Postemergence; scale 0 to 10 (0 no effect, 10 complete control)
# output: bare number, no unit

Example molecules with recorded Morningglory plant response rating:
CC(C)N(C(=O)n1oc(=O)n(-c2ccc3ccccc3c2)c1=O)c1ccc(F)cc1F : 0
Cc1cccc(C)c1-n1c(=O)on(C(=O)N(c2ccc(Cl)cc2Cl)C2CCC2)c1=O : 0
Cc1c(-n2c(=O)on(C(=O)N(c3ccc(F)cc3F)C(C)C)c2=O)ccc2ccccc12 : 0

Could you please provide reported Morningglory plant response rating for COC(OC)C(C)n1c(=O)on(C(=O)N(c2ccc(F)cc2F)C(C)C)c1=O (centres unmarked) ? Thanks! 3

Could you please provide reported Morningglory plant response rating for CC(C)N(C(=O)n1oc(=O)n(C2CCCCO2)c1=O)c1ccc(F)cc1 (centres unmarked) ? Thanks! 0
